STUDY_TARGET: Interleukin-23 receptor (Homo sapiens, UniProt Q5VWK5)
Sequence (Q5VWK5 whole entry): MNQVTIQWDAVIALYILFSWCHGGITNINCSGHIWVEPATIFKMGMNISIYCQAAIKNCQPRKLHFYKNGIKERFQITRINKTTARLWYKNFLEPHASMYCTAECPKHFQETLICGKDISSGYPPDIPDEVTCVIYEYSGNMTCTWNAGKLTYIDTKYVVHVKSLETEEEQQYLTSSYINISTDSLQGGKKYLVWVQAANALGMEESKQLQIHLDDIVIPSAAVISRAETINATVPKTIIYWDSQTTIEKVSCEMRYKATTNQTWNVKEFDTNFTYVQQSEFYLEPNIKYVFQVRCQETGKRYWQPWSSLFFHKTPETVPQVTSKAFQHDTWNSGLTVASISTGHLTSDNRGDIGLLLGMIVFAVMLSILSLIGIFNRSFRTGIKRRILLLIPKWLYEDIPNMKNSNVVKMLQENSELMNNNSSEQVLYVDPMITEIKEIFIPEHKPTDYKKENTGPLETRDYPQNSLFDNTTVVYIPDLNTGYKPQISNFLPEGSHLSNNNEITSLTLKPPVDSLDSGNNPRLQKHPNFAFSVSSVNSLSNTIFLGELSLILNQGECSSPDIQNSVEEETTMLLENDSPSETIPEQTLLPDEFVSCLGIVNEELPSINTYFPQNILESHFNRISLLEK
PROTOCOL_SUMMARY: Inhibition of interleukin-23 receptor in human natural killer cells assessed as reduction in IL23/IL18-induced IFNgamma production incubated for 20 to 24 hrs by ELISA
Type: cell-based
pIC50: −log10 of the molar value. *1 amine or outer side, *2 acyl side, *3 side chain or, on linkers, in order; H or OH if unused. Where a SMILES comes first, the peptide text is derived from it. Bridges are numbered along the chain shown (N, C = ends). [ ]: non-standard residue; d: D form. Abu(4-yl) = O=C([C@H](CC[*:3])N[*:1])[*:2]; 2Nal = N[C@@H](Cc1ccc2ccccc2c1)C(=O)O; AEF = NCCOc1ccc(C[C@H](N)C(=O)O)cc1; αMeK = C[C@](N)(CCCCN)C(=O)O
MEASURED_ENDPOINT: pIC50

Completed entries (count: 2):
{"columns": ["COMPOUND", "ASSAY_RESULT"],
 "data": [
  ["CC(=O)N[C@H]1CCSC[C@@H](C(=O)N[C@@H](Cc2ccc(OCCN)cc2)C(=O)N[C@@H](Cc2c[nH]c3ccccc23)C(=O)N[C@@](C)(CCCCN)C(=O)N[C@@H](CCC(=O)O)C(=O)N[C@@H](CC(N)=O)C(=O)NCC(N)=O)NC(=O)[C@H](CCC(N)=O)NC(=O)[C@H](Cc2c[nH]c3ccccc23)NC(=O)[C@H]([C@@H](C)O)NC(=O)[C@H](CCC(N)=O)NC1=O", "7.57 to 7.60"],
  ["COc1ccc(C[C@H](NC(=O)[C@@H](NC(=O)[C@H](CCC(N)=O)NC(=O)[C@H](Cc2c[nH]c3ccccc23)NC(=O)[C@@H](NC(=O)[C@H](CC(N)=O)NC(=O)[C@@H](NC(=O)[C@@H](Cc2ccccc2)NC(C)=O)C(C)(C)S)[C@@H](C)O)C(C)(C)S)C(=O)N[C@@H](Cc2ccc3ccccc3c2)C(=O)NC2(C(=O)N[C@@H](CCCNC(N)=O)C(=O)N[C@@H](CC(N)=O)C(=O)N[C@@H](CC(N)=O)C(N)=O)CCOCC2)cc1", "> 8.00"]
]}

Moving on to the next compound.
[in] # pIC50 lookup, item CC(=O)N[C@H]1CCSC[C@@H](C(=O)N[C@@H](Cc2ccc(OCCN)cc2)C(=O)N[C@@H](Cc2ccc3ccccc3c2)C(=O)N[C@@](C)(CCCCN)C(=O)N[C@@H](CCC(=O)O)C(=O)N[C@@H](CC(N)=O)C(=O)N[C@@H](CCC(N)=O)C(N)=O)NC(=O)[C@H](CCC(N)=O)NC(=O)[C@H](Cc2c[nH]c3ccccc23)NC(=O)[C@H]([C@@H](C)O)NC(=O)[C@H](CCC(N)=O)NC1=O (Ac-[Abu(4-yl)]QTWQC[AEF][2Nal][αMeK]ENQ-NH2; thioether 1-6)
[out] > 7.60

Data credit: ChEMBL document CHEMBL4417631
